UniProt O14746 IC50, compiled from various sources.
reported_property: IC50 (nM)

Some compounds with recorded IC50:
| compound | reported_property | result_units | numeric_value |
| --- | --- | --- | --- |
| CCN1c2ccccc2-c2c3c1cc(C)cc3c1ccccc1[n+]2CC | IC50 | nM | 2000 |
| O=Cc1cccc(C(=O)Sc2ccc(Cl)c(Cl)c2)n1 | IC50 | nM | 24000 |
| CN1CCN(CCC(=O)Nc2ccc3c(c2)C(=O)c2cc(NC(=O)CCN4CCN(C)CC4)ccc2-3)CC1 | IC50 | nM | 44000 |
| Cc1cc2c3c([n+](C)c4ccc(F)cc4c3c1)-c1cc(F)ccc1N2C | IC50 | nM | 330 |
| Cc1cc2c3c([n+](C)c4ccc(Cl)cc4c3c1)-c1cc(Cl)ccc1N2C | IC50 | nM | 250 |

[A] Cc1cc(N(C)C)c2cc(NC(=O)c3cccc(C(=O)Nc4ccc5c(ccc[n+]5C)c4)n3)ccc2[n+]1C
[B] COc1ccc2ccc3c([nH]c4c5ccccc5nc(NCCCN(C)C)c34)c2c1
[C] O=C(CCN1CCCCC1CCO)Nc1ccc2c(c1)C(=O)c1cc(NC(=O)CCN3CCCCC3CCO)ccc1-2 (centres undefined)
*Q* Please rank these compounds by IC50 in descending order. Write the labels out in the order the request specifies.
*A* C, B, A
(C: 16500 nM, B: 1100 nM, A: 220 nM)

###

Literature-derived pIC50 for Telomerase reverse transcriptase (Homo sapiens, UniProt O14746) follows.
pIC50: −log10 of the molar value.
reported_property: pIC50

Sample answers from the record:
| compound | pIC50 |
| --- | --- |
| COc1ccc2nccc(Nc3nc(Nc4ccc5nc(C)cc(C)c5c4)nc(SC)n3)c2c1 | 5.48 |
| C[n+]1cccc2cc(Nc3nc(N)nc(Nc4ccc5c(ccc[n+]5C)c4)n3)ccc21 | 6.89 |
| CN(C)CCC(=O)Nc1ccc2c(c1)C(=O)c1cc(NC(=O)CCN(C)C)ccc1-2 | 4.79 |
| O=C(Cc1cn(CCn2ccc3cc(Cl)ccc32)c2ccccc12)NCCCCCCCCCCCCOP(=O)(O)Oc1ccccc1 | 5.17 |
| C[N+]1(CCC(=O)Nc2cccc3c2C(=O)c2cccc(NC(=O)CC[N+]4(C)CCCC4)c2C3=O)CCCC1 | 5.06 |
| O=C(CCN1CCCCC1)Nc1ccc2c(c1)C(=O)c1cc(NC(=O)CCN3CCCCC3)ccc1-2 | 5.05 |
| C[N+]1(CCC(=O)Nc2ccc3c(c2)C(=O)c2cc(NC(=O)CC[N+]4(C)CCOCC4)ccc2-3)CCOCC1 | 4.56 |
| CCN(CC)CCC(=O)Nc1ccc2c(c1)C(=O)c1ccc(NC(=O)CCN(CC)CC)cc1C2=O | 5.46 |
| O=C(O)CCCCCCCCCCCNC(=O)Cc1cn(CCCn2ccc3ccccc32)c2ccccc12 | 4.04 |
| O=C(O)CCCCCCCCCCCNC(=O)Cc1cn(CCOc2cccc3ccccc23)c2ccccc12 | 4.46 |

[1] CC(=O)O[C@H](CC=C(C)C)C1=CC(=O)c2c(O)ccc(O)c2C1=O
[2] O=C(O)CCCCCCCCCCCNC(=O)Cc1cn(CCCOC2CCCCC2)c2ccccc12
[3] Brc1ccc(CSc2nnc(-c3cnccn3)s2)cc1
*Q* Would you mind ranking these compounds by ascending pIC50? Answer with the labels in sequence, matching the requested order.
*A* 2, 1, 3
